Source: patent US20230278984A1

Record form. Attribute: AC50. Fill in for each entry.
# systemTested: Human pyruvate kinase R (PKR) (Homo sapiens, UniProt P30613)
# Construct: Human pyruvate kinase R (PKR), residues 14-574; 6x-His (N, cleaved yes); 8x-Arg (N, cleaved yes); SUMO (N, cleaved yes); host or cells: E. coli
# Sequence (P30613 14-574): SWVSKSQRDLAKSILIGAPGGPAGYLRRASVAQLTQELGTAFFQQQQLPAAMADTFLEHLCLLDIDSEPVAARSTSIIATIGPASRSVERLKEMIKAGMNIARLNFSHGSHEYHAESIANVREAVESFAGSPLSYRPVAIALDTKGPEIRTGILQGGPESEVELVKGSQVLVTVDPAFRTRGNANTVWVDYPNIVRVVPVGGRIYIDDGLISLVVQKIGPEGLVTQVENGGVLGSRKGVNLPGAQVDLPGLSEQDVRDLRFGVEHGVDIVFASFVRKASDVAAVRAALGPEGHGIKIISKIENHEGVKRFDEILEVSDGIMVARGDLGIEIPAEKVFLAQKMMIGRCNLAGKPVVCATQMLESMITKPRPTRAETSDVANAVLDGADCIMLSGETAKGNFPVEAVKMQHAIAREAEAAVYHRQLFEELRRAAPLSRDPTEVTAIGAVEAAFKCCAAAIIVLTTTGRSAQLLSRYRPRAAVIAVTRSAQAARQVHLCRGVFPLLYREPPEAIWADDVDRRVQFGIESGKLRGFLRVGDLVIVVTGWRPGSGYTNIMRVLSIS
# protocolSummary: Biochemical assay for activation of pyruvate kinase R (Kinase-Glo luminescence measurement of ATP generation)
# testSettings: PKR biochemical assay; 0.1 nM PKR, 0.3 mM ADP, 2 mM FBP, 0.1 mM PEP
Answers are plain numbers, in µM.

# count of solved cases: 10
Cc1nc(CNC(=O)NCc2ncnn2-c2ccc3ccncc3c2)n(-c2ccc(Cl)c(F)c2)n1: 0.051
O=C(NCc1nnnn1-c1ccc(Cl)cc1F)NCc1nnnn1-c1ccc(Cl)cc1F: 2.5
Cc1nc(CNC(=O)NCc2ncnn2-c2ccn3ccnc3c2)n(-c2ccc(Cl)c(F)c2)n1: 0.024
Cc1nc(CNC(=O)NCc2ncnn2-c2cnc3cccc(F)c3c2)n(-c2ccc(Cl)c(F)c2)n1: 0.025
Cc1ccc(-n2nnnc2CNC(=O)NCc2nnnn2-c2ccc(C)c(F)c2)cc1F: 0.22
Cc1nc(CNC(=O)NCc2ncnn2-c2ccc3ncncc3c2)n(-c2ccc(Cl)c(F)c2)n1: 0.047
Cc1nc(CNC(=O)NCc2ncnn2-c2cc(C)c3nccnc3c2)n(-c2ccc(Cl)c(F)c2)n1: 0.11
CCc1nc(CNC(=O)NCc2ncnn2-c2ccc3nccnc3c2)n(-c2ccc(Cl)c(F)c2)n1: 0.15
O=C(NCc1ncnn1-c1ccc2cccnc2c1)NCc1n[nH]c(=O)n1-c1ccc(Cl)c(F)c1: 0.071
O=C(NCc1ncnn1CC1CCOCC1)NCc1ncnn1-c1ccc2cccnc2c1: 0.31

Give one value of AC50 per listed compound.
1. O=C1N(Cc2nnnn2-c2ccc(Cl)c(F)c2)CCCN1Cc1nnnn1-c1ccc(Cl)c(F)c1
2. CC1(C)CC(Cn2ncnc2CNC(=O)NCc2ncnn2-c2ccc(Cl)c(F)c2)CCO1 (stereo not shown)
3. O=C(NCc1ncnn1CC1CCOCC1)NCc1ncnn1-c1ccc(Cl)c(F)c1
4. Cc1nc(CNC(=O)NCc2ncnn2-c2ccc3scnc3c2)n(-c2ccc(Cl)c(F)c2)n1
5. Cc1cc(-n2nnnc2CNC(=O)NCc2nnnn2-c2ccc(F)c(C)c2)ccc1F
6. Cc1nc(CNC(=O)NCc2ncnn2-c2cc(F)c3nccnc3c2)n(-c2ccc(Cl)c(F)c2)n1

Key:
1.2
1
0.044
0.013
0.21
0.093
